system: MDA-N; assay: NCI tumour cell line growth inhibition, 48 h
Active and inactive are the calls of the source. Cut-off read from the data, not from the text of the source: active = GI50 up to about 1.1 µM and inactive = higher.
Outcome codes: active, inactive

compound=Cc1cc(=O)oc2cc(O)ccc12 grouplabel=inactive
compound=CCc1ccccc1NC(=O)/C=C/c1ccccc1 grouplabel=inactive
compound="CC1=C(C(=O)Nc2ccccc2)C(c2ccc(C)o2)C(C#N)=C(SCc2ccccc2)N1 (centres undefined)" grouplabel=inactive
compound=O=c1[nH]nc(Nc2ccccc2)c2nnn(C3CCCCC3)c12 grouplabel=inactive
compound="CO/N=C1\\CCC2(O)C3Cc4ccc(O)c5c4C2(CCN3CC2CC2)[C@H]1O5 (some centres undefined)" grouplabel=inactive
compound=O=C1N/C(=N\C2CCCCC2)C2(CCN(CCCC3(c4ccc(F)cc4)OCCO3)CC2)N1c1ccccc1 grouplabel=inactive
compound=Fc1cccc(F)c1C(Nc1nncs1)Nc1nncs1 grouplabel=inactive
compound=COC(=O)/C=C/c1cc2c(cc1-c1c(C(=O)O)cc(OC)c(OC)c1OC)OCO2 grouplabel=inactive
compound=C/C(=C\c1csc(C)n1)[C@@H]1C[C@@H]2O[C@@H]2CCC[C@H](C)[C@H](O)[C@@H](C)C(=O)C(C)(C)[C@@H](O)CC(=O)O1 grouplabel=active
